This collection of values is drawn from patent US20260217701A1.

- assay overview: Rat PK study #4 (Compound A PO 0.2 and 1.0 mg/kg, propylene glycol formulation)
- Format: in vivo, Lewis rats
- applied conditions: male, Lewis, rat, plasma, po, 0.2 mg/kg, 0.2 mg/kg PO, propylene glycol-based formulation; mean
quantity measured: Tmax (h)
Provide the reading as a plain figure in h.

Specify Tmax for Cn1cc(-c2ccccc2)c(-c2cn(C)c(=O)c3[nH]c(-c4cnn(C(F)(F)F)c4)cc23)cc1=O and stop.
2.67

---

- assay overview: Rat PK study #4 (Compound A PO 0.2 and 1.0 mg/kg, propylene glycol formulation)
- Type: in vivo, Lewis rats
- applied conditions: male, Lewis, rat, plasma, po, 0.2 mg/kg, Lewis rats, PO 0.2 mg/kg, propylene glycol-based formulation, 1 h, individual animals
quantity measured: concentration at 1 h (ng/mL)
Provide the reading as a plain figure in ng/mL.

Specify concentration at 1 h for Cn1cc(-c2ccccc2)c(-c2cn(C)c(=O)c3[nH]c(-c4cnn(C(F)(F)F)c4)cc23)cc1=O and stop.
5.24
